// data source = paper PMC8492067

Measurement label: Kd
# include the unit after the value

Recorded Kd for Nc1nc2c(ncn2[C@@H]2O[C@H](COP(=O)(O)O[C@H]3[C@@H](O)[C@H](n4cnc5c(=O)[nH]c(N)nc54)O[C@@H]3COP(=O)(O)O[C@H]3[C@@H](O)[C@H](n4cnc5c(N)ncnc54)O[C@@H]3COP(=O)(O)O)[C@@H](O)[C@H]2O)c(=O)[nH]1 [pAGG] on NrnCBh (Bartonella henselae, UniProt A0A0R4J6U7) was 3490 nM

Recorded Kd for Nc1nc2c(ncn2[C@@H]2O[C@H](COP(=O)(O)O[C@H]3[C@@H](O)[C@H](n4cnc5c(=O)[nH]c(N)nc54)O[C@@H]3COP(=O)(O)O)[C@@H](O)[C@H]2O)c(=O)[nH]1 [pGG] on NrnCBh (Bartonella henselae, UniProt A0A0R4J6U7) was 17.7 nM
